Measured values drawn from paper PMC10397247 for this set.

Biological target: T1, 4H855-bH
T1 chain: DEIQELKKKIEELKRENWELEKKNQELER
Test: two-hybrid library CCNG1;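 also: natural log of median RNA to DNA barcode read ratio; higher means stronger binding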
recorded_metric: interaction score
Provide a numeric answer; units are not to be included.

Request: Fill blank: measured interaction score of the binder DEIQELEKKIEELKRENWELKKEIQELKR [4H346-bH] is ____.
Response: 0.532

Request: Now the same for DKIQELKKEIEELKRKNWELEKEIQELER [4H2673-bH]
Response: -0.854

Request: Try this binder too: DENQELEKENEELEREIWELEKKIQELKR [4H1158-bH]
Response: -0.335

Now, please, on to the next binder.
Request: # interaction score lookup, item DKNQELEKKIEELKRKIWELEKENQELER [4H3427-bH]
Response: -0.0661
